# MEASURED_TARGET: FGFR3-IIIc stably expressed on FDCP cells, P22607
# Sequence (P22607 23-806): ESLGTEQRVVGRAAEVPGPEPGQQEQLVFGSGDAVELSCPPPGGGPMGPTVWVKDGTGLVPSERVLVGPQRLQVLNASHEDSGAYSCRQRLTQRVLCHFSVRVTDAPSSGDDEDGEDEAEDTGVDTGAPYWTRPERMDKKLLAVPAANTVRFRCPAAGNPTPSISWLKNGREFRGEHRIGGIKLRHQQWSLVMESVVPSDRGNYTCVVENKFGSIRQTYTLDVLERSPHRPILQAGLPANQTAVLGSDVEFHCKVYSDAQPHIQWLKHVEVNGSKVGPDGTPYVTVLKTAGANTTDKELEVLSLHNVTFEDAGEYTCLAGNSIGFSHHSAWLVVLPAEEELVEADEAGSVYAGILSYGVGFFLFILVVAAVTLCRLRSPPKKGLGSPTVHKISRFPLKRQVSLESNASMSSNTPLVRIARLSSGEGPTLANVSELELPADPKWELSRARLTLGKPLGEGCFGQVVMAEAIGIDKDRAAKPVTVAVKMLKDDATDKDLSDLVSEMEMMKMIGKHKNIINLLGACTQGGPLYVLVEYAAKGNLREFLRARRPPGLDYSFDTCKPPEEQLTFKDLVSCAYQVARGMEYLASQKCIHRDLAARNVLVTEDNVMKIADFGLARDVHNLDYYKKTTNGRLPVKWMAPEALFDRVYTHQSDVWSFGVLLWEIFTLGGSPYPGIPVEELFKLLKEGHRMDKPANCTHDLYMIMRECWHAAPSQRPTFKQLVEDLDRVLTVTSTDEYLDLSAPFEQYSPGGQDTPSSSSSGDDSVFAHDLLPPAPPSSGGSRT
# RUN_DESCRIPTION: cell-based or functional assay
OBSERVABLE: EC50 scores of FGF ligands in cell proliferation of FDCPR3 (ng/mL)
Number only, in ng/mL; omit the unit.

Some binders with recorded EC50 scores of FGF ligands in cell proliferation of FDCPR3:
FGF-18^Δ45, O76093 46-207 (ligand, here or on the partner: biotinylated in the immobilized receptor assays (sites not given)) MDVSRKQLRLYQLYSRTSGKHIQVLGRRISARGEDGDKYAQLLVETDTFGSQVRIKGKETEFYLCMNRKGKLVGKPDGTSKECVFIEKVLENNYTALMSAKYSGWYVGFTKKGRPRKGPKTRENQQDVHFMKRYPKGQPELQKPFKYTTVTKRSRRIRPTHPA	5.44
FGF-18^Δ37, O76093 38-207 (ligand, here or on the partner: biotinylated in the immobilized receptor assays (sites not given)) MENQTRARDDVSRKQLRLYQLYSRTSGKHIQVLGRRISARGEDGDKYAQLLVETDTFGSQVRIKGKETEFYLCMNRKGKLVGKPDGTSKECVFIEKVLENNYTALMSAKYSGWYVGFTKKGRPRKGPKTRENQQDVHFMKRYPKGQPELQKPFKYTTVTKRSRRIRPTHPA	3.14
FGF-18^Δ51, O76093 52-207 (ligand, here or on the partner: biotinylated in the immobilized receptor assays (sites not given)) MLRLYQLYSRTSGKHIQVLGRRISARGEDGDKYAQLLVETDTFGSQVRIKGKETEFYLCMNRKGKLVGKPDGTSKECVFIEKVLENNYTALMSAKYSGWYVGFTKKGRPRKGPKTRENQQDVHFMKRYPKGQPELQKPFKYTTVTKRSRRIRPTHPA	3.97

query: Provide only the value of recorded EC50 scores of FGF ligands in cell proliferation of FDCPR3 for FGF-18 (recombinant wild type, mature form without the signal peptide), O76093 29-207 (ligand, here or on the partner: biotinylated in the immobilized receptor assays (sites not given)) MENVDFRIHVENQTRARDDVSRKQLRLYQLYSRTSGKHIQVLGRRISARGEDGDKYAQLLVETDTFGSQVRIKGKETEFYLCMNRKGKLVGKPDGTSKECVFIEKVLENNYTALMSAKYSGWYVGFTKKGRPRKGPKTRENQQDVHFMKRYPKGQPELQKPFKYTTVTKRSRRIRPTHPA
result: 15.4
